Molecular target: UGT2B15 (Homo sapiens, UniProt P54855)
Sequence (P54855 24-530): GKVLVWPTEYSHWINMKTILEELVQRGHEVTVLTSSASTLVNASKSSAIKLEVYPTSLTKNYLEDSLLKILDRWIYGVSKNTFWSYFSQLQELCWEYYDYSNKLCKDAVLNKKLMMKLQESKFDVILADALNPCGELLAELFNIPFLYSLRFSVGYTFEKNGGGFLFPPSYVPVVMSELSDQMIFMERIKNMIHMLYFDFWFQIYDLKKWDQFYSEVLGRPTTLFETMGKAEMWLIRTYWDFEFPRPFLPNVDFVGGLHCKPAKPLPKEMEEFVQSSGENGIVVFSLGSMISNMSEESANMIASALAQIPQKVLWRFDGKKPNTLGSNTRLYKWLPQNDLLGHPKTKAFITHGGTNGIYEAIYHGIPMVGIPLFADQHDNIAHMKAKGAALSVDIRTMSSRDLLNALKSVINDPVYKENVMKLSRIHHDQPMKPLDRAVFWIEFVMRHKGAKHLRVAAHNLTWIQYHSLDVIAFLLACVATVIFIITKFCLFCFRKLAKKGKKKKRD
Assay: UGT2B15 inhibition by XueBiJing compounds, cDNA-expressed enzyme [SENI→S7G]
Assay type: in vitro ADME
resultType: IC50

## Input Would you mind telling me what IC50 value was observed for O=C(/C=C/c1ccc(O)c2c1[C@H](C(=O)O[C@H](Cc1ccc(O)c(O)c1)C(=O)O)[C@@H](c1ccc(O)c(O)c1)O2)O[C@H](Cc1ccc(O)c(O)c1)C(=O)O [X10, salvianolic acid B] ?
## Output 92 µM

====

Target: UGT1A9 (Homo sapiens, UniProt O60656)
Sequence (O60656 26-530): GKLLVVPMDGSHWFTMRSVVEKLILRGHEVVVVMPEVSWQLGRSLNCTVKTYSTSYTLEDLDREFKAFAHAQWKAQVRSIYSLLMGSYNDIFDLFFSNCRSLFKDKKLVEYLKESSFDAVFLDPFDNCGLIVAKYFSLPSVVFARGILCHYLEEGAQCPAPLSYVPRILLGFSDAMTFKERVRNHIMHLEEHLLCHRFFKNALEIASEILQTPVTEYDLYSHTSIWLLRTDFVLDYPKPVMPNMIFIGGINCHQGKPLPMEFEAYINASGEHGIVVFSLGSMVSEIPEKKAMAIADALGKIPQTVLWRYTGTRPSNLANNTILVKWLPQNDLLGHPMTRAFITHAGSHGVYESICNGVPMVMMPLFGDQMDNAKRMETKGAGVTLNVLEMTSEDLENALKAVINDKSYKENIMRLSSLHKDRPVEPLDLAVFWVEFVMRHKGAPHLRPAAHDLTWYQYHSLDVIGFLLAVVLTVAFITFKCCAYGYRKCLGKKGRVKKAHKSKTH
Assay: UGT1A9 inhibition by XueBiJing compounds, cDNA-expressed enzyme [4-MU→4-MUG]
Assay type: in vitro ADME
Settings: human, cDNA-expressed UGT1A9, probe 4-MU (10 μmol/L), 4-MUG formed
resultType: inhibition at 100 μmol/L

## Input For O=C(/C=C/c1ccc(O)c2c1[C@H](C(=O)O[C@H](Cc1ccc(O)c(O)c1)C(=O)O)[C@@H](c1ccc(O)c(O)c1)O2)O[C@H](Cc1ccc(O)c(O)c1)C(=O)O , what is its reported inhibition at 100 μmol/L?
## Output > 90%

====

target: OATP1B3 (Homo sapiens, UniProt Q9NPD5); assay: in vitro
Sequence (Q9NPD5 whole entry): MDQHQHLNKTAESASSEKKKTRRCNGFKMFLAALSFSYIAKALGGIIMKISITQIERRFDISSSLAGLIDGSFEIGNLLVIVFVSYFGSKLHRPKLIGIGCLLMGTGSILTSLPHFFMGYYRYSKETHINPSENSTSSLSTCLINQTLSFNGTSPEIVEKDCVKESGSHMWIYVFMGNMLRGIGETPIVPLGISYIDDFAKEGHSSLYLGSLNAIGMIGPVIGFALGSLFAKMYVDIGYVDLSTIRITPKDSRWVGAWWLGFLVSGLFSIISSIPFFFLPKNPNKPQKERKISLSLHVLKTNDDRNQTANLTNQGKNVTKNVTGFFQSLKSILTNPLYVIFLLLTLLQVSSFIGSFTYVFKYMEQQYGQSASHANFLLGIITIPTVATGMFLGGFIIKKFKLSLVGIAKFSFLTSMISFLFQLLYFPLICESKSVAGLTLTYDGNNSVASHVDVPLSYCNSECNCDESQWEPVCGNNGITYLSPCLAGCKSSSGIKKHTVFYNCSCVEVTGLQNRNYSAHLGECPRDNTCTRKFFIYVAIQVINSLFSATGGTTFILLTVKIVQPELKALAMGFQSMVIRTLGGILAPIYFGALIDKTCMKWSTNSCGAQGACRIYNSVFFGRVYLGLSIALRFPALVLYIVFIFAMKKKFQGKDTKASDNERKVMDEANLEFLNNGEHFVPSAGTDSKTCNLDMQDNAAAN
resultType: inhibition at 5000 μmol/L

[[record]]
compound = "CC1(C)S[C@@H]2[C@H](NC(=O)[C@H](N)c3ccccc3)C(=O)N2[C@H]1C(=O)O [A16, ampicillin]"
resulttype = "inhibition at 5000 μmol/L"
reportedvalue = "> 90%"


Now consider the entry below.
## Input Find inhibition at 5000 μmol/L (OATP1B3 (Homo sapiens, UniProt Q9NPD5)) for the entry CC1(C)S[C@@H]2[C@H](NC(=O)Cc3ccccc3)C(=O)N2[C@H]1C(=O)O [A15, penicillin G]
## Output > 90%
